Test system: 287954-098-R-J1 tumor spheroid viability;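 also: luminescent signal taken as surrogate of viable cell content; spheroids exposed to compound for 7 days before viability readout; 100% = DMSO vehicle control viability and lower means growth inhibition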
protocol.text: Anticancer human tumor 287954-098-R-J1 patient-derived Ewing sarcoma cell line growth inhibition
run.parameters: second compound 31.6 µM; first compound 0.949 µM; stronger effect = lower value; spheroids with HUVEC and MSC
Give viability, T/C for every item shown.

compound="CNCc1ccc(-c2cc(-c3nc(-c4ccc(S(=O)(=O)C(C)C)cc4)cnc3N)on2)cc1 + Cn1nnc2c(C(N)=O)ncn2c1=O" observed_measurement=0.13%
compound="O=C(c1cc(Cc2n[nH]c(=O)c3ccccc23)ccc1F)N1CCN(C(=O)C2CC2)CC1 + Cn1nnc2c(C(N)=O)ncn2c1=O" observed_measurement=106%
compound="Cn1ncnc1[C@H]1c2n[nH]c(=O)c3cc(F)cc(c23)N[C@@H]1c1ccc(F)cc1 + Cn1nnc2c(C(N)=O)ncn2c1=O" observed_measurement=2.34%

With those in mind, consider the next compound.
Bench note, 287954-098-R-J1 tumor spheroid viability: Cc1sc2c(c1C)C(c1ccc(Cl)cc1)=NC(CC(=O)Nc1ccc(O)cc1)c1nnc(C)n1-2 (centres undefined) + Cn1nnc2c(C(N)=O)ncn2c1=O , viability, T/C reads 13.7%

# credit: PubChem BioAssay AID1845194
